Sourced from paper PMC12040169

Test: in vitro
Conditions: human, hela cells, % viability

[
  {
    "molecule": "COc1ccc(CCCCN(C(=O)C(N)Cc2ccccc2)c2cccc3ccccc23)cc1OC (centres unmarked) [CBK001032T]",
    "viability at 28.5 h, 10 µM / %": 118
  },
  {
    "molecule": "Nc1nnc(Sc2nc3cc(Cl)c(Cl)cc3nc2N2CCCC2)s1",
    "viability at 28.5 h, 10 µM / %": 98.9
  },
  {
    "molecule": "CC(=O)N(C)c1nc(-c2ccccc2C)ccc1C(=O)Nc1cc(C)nn1C",
    "viability at 28.5 h, 10 µM / %": 88.6
  },
  {
    "molecule": "Cc1ccccc1N1CCN(Cc2cccc(C(=O)O)c2)CC1",
    "viability at 28.5 h, 10 µM / %": 90.8
  },
  {
    "molecule": "COc1ccc(-c2ccc3c(c2)COC2(CCCNC2)O3)c(OC)c1 (centres unmarked)",
    "viability at 28.5 h, 10 µM / %": 103
  }
]

====

Assay: in vitro
Settings: human, hela cells, % viability

[
  {
    "compound": "CC(=O)N1C[C@H]2CCCN(S(=O)(=O)c3ccc4c(c3)CCC4)[C@H]2C1",
    "valueUnits": "%",
    "viability at 28.5 h, 10 µM": 87.5
  },
  {
    "compound": "Cc1ccc(S(=O)(=O)N/N=C/C=C/c2ccc(N(C)C)cc2)cc1",
    "valueUnits": "%",
    "viability at 28.5 h, 10 µM": 99.7
  },
  {
    "compound": "Cc1cc(C)cc(OCc2nnc(SCC(=O)Nc3cc(C(F)(F)F)ccc3Cl)o2)c1",
    "valueUnits": "%",
    "viability at 28.5 h, 10 µM": 94.6
  },
  {
    "compound": "CS(=O)(=O)Nc1nccnc1OC1CCN(CCc2ccccc2)CC1",
    "valueUnits": "%",
    "viability at 28.5 h, 10 µM": 98.3
  },
  {
    "compound": "CC12CCC(C(=O)N(CC(O)Cn3c4ccc(Br)cc4c4cc(Br)ccc43)C1=O)C2(C)C (stereo not shown)",
    "valueUnits": "%",
    "viability at 28.5 h, 10 µM": 94.4
  },
  {
    "compound": "O=S(=O)(NCCNc1ncc(C(F)(F)F)cc1Cl)C(F)(F)F",
    "valueUnits": "%",
    "viability at 28.5 h, 10 µM": 109
  },
  {
    "compound": "Clc1ccc(COc2cccc(CNCc3ccccn3)c2)c(Cl)c1 [CBK270060C]",
    "valueUnits": "%",
    "viability at 28.5 h, 10 µM": 88.8
  },
  {
    "compound": "O=C(CSc1nccn1-c1ccccc1)Nc1ccc(F)cc1",
    "valueUnits": "%",
    "viability at 28.5 h, 10 µM": 76.1
  },
  {
    "compound": "C=CCn1c2cc(C)sc2c2cnn(CC(=O)OC)c(=O)c21",
    "valueUnits": "%",
    "viability at 28.5 h, 10 µM": 89.3
  },
  {
    "compound": "Cc1nonc1NC(=O)Nc1ccncc1",
    "valueUnits": "%",
    "viability at 28.5 h, 10 µM": 94.7
  },
  {
    "compound": "O=S(=O)(CCN1CCN(C(c2ccccc2)c2ccccc2)CC1)c1ccc(Cl)cc1",
    "valueUnits": "%",
    "viability at 28.5 h, 10 µM": 92
  },
  {
    "compound": "CS(=O)(=O)Nc1ccc(CNC(=O)c2ccc3[nH]ccc3c2)cc1",
    "valueUnits": "%",
    "viability at 28.5 h, 10 µM": 93.5
  },
  {
    "compound": "O=C(NC1CCCCC1)N[C@H]1CO[C@H]2[C@@H]1OC[C@@H]2n1cc(CC2CCCCC2)nn1",
    "valueUnits": "%",
    "viability at 28.5 h, 10 µM": 75.2
  },
  {
    "compound": "CCn1c(COc2c(C)cccc2C)nnc1SCC(=O)N1c2ccccc2Sc2ccccc21",
    "valueUnits": "%",
    "viability at 28.5 h, 10 µM": 96.4
  },
  {
    "compound": "O=C(C1=C(O)C(=O)N(CCCn2ccnc2)C1c1cccc([N+](=O)[O-])c1)c1ccc(F)cc1 (stereo not shown)",
    "valueUnits": "%",
    "viability at 28.5 h, 10 µM": 97.8
  },
  {
    "compound": "CCOc1ccc(CC(=O)NN2CCOCC2)cc1OCC",
    "valueUnits": "%",
    "viability at 28.5 h, 10 µM": 102
  },
  {
    "compound": "CC(=O)Nc1cccc(-c2nccnc2NS(=O)(=O)c2cccs2)c1",
    "valueUnits": "%",
    "viability at 28.5 h, 10 µM": 92.7
  },
  {
    "compound": "Cc1cccc2c3c([nH]c12)CCN(C(=O)C(C)N1CCOCC1)C3 (stereo not shown)",
    "valueUnits": "%",
    "viability at 28.5 h, 10 µM": 89.2
  },
  {
    "compound": "O=C(Nc1nn(Cc2c(F)cccc2Cl)cc1Cl)c1cccnc1",
    "valueUnits": "%",
    "viability at 28.5 h, 10 µM": 79.1
  }
]

====

Test: in vitro
Conditions: human, hela cells, % viability
recordedMetric: viability at 28.5 h, 10 µM (%)

[
  {
    "molecule": "CCN1CCCC1CNC(=O)c1ccc(-c2ccc(OC)cc2)nc1N(C)C(C)=O (stereo not drawn)",
    "observed": 98.3
  },
  {
    "molecule": "Cc1n[nH]c2nc(-c3cc(Br)ccc3O)cc(C(=O)O)c12",
    "observed": 105
  },
  {
    "molecule": "COC(=O)NCCc1c[nH]c2ccc(OC)cc12",
    "observed": 98
  },
  {
    "molecule": "CCN(CC)c1ccc(NC(=O)c2cccc(OC)c2OC)c(C)c1",
    "observed": 92.2
  },
  {
    "molecule": "O=C(NC1CCCc2c1cnn2Cc1ccccc1)c1ccncc1 (stereo not drawn)",
    "observed": 93.8
  },
  {
    "molecule": "O=c1[nH]c2ccccc2n1CCCN1CCC(Cc2ccccc2)CC1",
    "observed": 104
  },
  {
    "molecule": "Cc1ccc(S(=O)(=O)NC(C)(C)C)cc1C(=O)N(C)Cc1cnn(C)c1",
    "observed": 86.9
  },
  {
    "molecule": "O=C(CN1CCN(CC(=O)NC2CC2)CC1)Nc1cc(Cl)ccc1Cl",
    "observed": 84.8
  },
  {
    "molecule": "COc1cc(/C=N/n2c(S)nnc2-c2cccnc2)ccc1OCc1ccccc1",
    "observed": 110
  },
  {
    "molecule": "NC(=O)c1c(NC(=O)CSc2nnc(-c3ccccc3)n2CC2CCCO2)sc2c1CCC2 (stereo not drawn)",
    "observed": 110
  },
  {
    "molecule": "N#Cc1cnc2ccccc2c1N1CCC(C(=O)O)CC1",
    "observed": 90
  },
  {
    "molecule": "COc1ccc(N2CCN(c3cncc(-c4cccnc4)n3)CC2)cc1OC",
    "observed": 90.5
  },
  {
    "molecule": "COc1ccc(Cn2nc3nnc(-c4ccccc4)c(-c4ccccc4)n3c2=O)cc1",
    "observed": 88.8
  },
  {
    "molecule": "FC(F)(F)c1ccnc(OC2CCNCC2)n1",
    "observed": 118
  },
  {
    "molecule": "Cc1nnc(SCC(=O)N2CCCN(c3ccc(F)cc3)CC2)s1",
    "observed": 88.7
  },
  {
    "molecule": "COc1nc2ccccc2nc1CCC(=O)NC(C)c1ccccc1 (stereo not drawn)",
    "observed": 100
  },
  {
    "molecule": "O=C(Nc1cc(Cl)ccc1Cl)c1ncn[nH]1",
    "observed": 92.9
  },
  {
    "molecule": "COc1cc(C(=O)NCc2ccc(-c3csnn3)cc2)cc(OC)c1OC",
    "observed": 87
  },
  {
    "molecule": "NC(=O)c1c(NC(=O)c2ccc(COc3cc(Cl)ccc3Cl)o2)sc2c1CCCC2",
    "observed": 85.4
  },
  {
    "molecule": "COc1ccc(OCCN2CCc3ccccc3C2)cc1",
    "observed": 94.8
  },
  {
    "molecule": "COC(CNC(=O)N(C)Cc1nncn1C(C)C)c1cccs1 (stereo not drawn)",
    "observed": 90.8
  },
  {
    "molecule": "Cc1nccn1CCNC(=O)c1c2c(nn1C)CCCC2",
    "observed": 100
  },
  {
    "molecule": "Cc1cc(NC(=O)CC(C)(C)C)nc2c1c(=O)oc1ccccc12",
    "observed": 101
  },
  {
    "molecule": "COc1cccc(C2(O)CCC3CN(C(C)=O)CC32)c1 (stereo not drawn)",
    "observed": 95.8
  },
  {
    "molecule": "COc1cc(CO)c(-c2c[nH][nH]c2=O)cc1OC",
    "observed": 85.5
  },
  {
    "molecule": "C=CCn1c(Cc2csc(NC(=O)c3cccc(NC(C)=O)c3)n2)n[nH]c1=S",
    "observed": 83.4
  },
  {
    "molecule": "O=C(c1ccccc1F)N1C[C@H](c2ccsc2)[C@H]2CN(Cc3cccs3)CC[C@H]21",
    "observed": 94.8
  },
  {
    "molecule": "Cc1cc(COc2ccnc(N3CCCN(CCCO)CC3)n2)no1",
    "observed": 98.4
  },
  {
    "molecule": "c1ccc2c3c([nH]c2c1)C1(CCN(CCC2CCCCC2)C1)OCC3 (stereo not drawn)",
    "observed": 83.3
  },
  {
    "molecule": "CN1Cc2ccccc2OC2(CCCN(C(=O)C3CC3)CC2)C1 (stereo not drawn)",
    "observed": 110
  },
  {
    "molecule": "O=C(NC/C=C/c1cn(C2CC(O)C(CO)O2)c(=O)[nH]c1=O)C(F)(F)F (stereo not drawn)",
    "observed": 109
  },
  {
    "molecule": "Cc1nn(-c2ccccc2)c2sc(C(=O)N3CCN(C(=O)c4ccccc4)CC3)cc12",
    "observed": 96.1
  },
  {
    "molecule": "O=C(NC(Cc1ccccc1)N1C(=O)c2ccccc2C1=O)N1CCCc2ccccc21 (stereo not drawn)",
    "observed": 111
  },
  {
    "molecule": "Cc1nc(C(F)(F)F)ccc1C(=O)N1C=CC(C(F)(F)F)=NCC1",
    "observed": 113
  },
  {
    "molecule": "O=S(=O)(c1cccc2nsnc12)N1CCCN(Cc2ccsc2)CC1",
    "observed": 105
  },
  {
    "molecule": "O=C(NCc1ccccc1)C1CCN(C(=O)Cc2c(F)cccc2Cl)CC1",
    "observed": 96.6
  },
  {
    "molecule": "CCCC(=O)N1CCCC(c2nnc(-c3cccs3)o2)C1 (stereo not drawn)",
    "observed": 83.6
  },
  {
    "molecule": "Cc1nnc2sc(-c3cccc(NC(=S)NC(=O)c4cc5ccccc5o4)c3)nn12",
    "observed": 87.4
  },
  {
    "molecule": "CC(c1ccc(Cl)cc1Cl)N(C)C(=O)Cn1cnc2c1CCCC2 (stereo not drawn)",
    "observed": 88
  }
]
